- measured.target: Sortilin (Homo sapiens, UniProt Q99523)
- Sequence (Q99523 whole entry): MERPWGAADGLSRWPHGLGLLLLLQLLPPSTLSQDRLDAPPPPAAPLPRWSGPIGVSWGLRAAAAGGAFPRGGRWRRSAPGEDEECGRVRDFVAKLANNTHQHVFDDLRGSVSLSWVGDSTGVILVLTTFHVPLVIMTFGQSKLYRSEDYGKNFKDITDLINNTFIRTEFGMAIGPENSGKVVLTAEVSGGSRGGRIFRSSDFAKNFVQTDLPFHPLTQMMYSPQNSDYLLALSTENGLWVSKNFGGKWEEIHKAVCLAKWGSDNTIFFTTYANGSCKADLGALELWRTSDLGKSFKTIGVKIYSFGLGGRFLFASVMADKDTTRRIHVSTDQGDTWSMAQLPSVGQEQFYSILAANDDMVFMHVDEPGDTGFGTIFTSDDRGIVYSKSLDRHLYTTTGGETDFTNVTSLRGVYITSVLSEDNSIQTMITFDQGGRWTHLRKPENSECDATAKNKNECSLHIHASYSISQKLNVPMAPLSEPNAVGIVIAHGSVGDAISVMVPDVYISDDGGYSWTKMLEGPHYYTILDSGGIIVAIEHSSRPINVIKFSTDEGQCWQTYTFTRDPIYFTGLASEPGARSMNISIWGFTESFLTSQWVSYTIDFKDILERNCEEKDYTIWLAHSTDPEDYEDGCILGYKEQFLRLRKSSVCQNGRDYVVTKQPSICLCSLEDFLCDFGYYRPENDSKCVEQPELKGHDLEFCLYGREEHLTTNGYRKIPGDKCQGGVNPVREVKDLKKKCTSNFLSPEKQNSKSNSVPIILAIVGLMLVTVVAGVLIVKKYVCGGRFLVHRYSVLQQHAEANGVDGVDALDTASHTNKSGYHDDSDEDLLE
measure.name: Kd (µM)
Give just the number in µM; leave the unit off.

Bench note, Sortilin (Homo sapiens, UniProt Q99523): "C[C@@H](N[C@@H](CCC(C)(C)C)C(=O)O)c1cccc2c1ccn2C" , Kd reads 0.0567
